These data points were gathered from patent US20220152031A1.

target: TRPC5 (Homo sapiens, UniProt Q9UL62); construct: expressed in transfected cells; experiment: Automated patch clamp assay, HEK293 cells overexpressing TRPC5, current block after rosiglitazone stimulation; type: cell-based; conditions: whole cell automated patch, 80 mV, read-out: TRPC5_QP_XC50_80
VALUE TYPE: IC50

Task item: Which IC50 reading was recorded for the molecule "O=C1CN(c2cn[nH]c(=O)c2Cl)CCN1Cc1ccccc1C(F)(F)F" ?
Reply: 0.01 to 1000 nM

====

Target: TRPC5 (Homo sapiens, UniProt Q9UL62)
Construct: expressed in transfected cells
Sequence (Q9UL62 1-973): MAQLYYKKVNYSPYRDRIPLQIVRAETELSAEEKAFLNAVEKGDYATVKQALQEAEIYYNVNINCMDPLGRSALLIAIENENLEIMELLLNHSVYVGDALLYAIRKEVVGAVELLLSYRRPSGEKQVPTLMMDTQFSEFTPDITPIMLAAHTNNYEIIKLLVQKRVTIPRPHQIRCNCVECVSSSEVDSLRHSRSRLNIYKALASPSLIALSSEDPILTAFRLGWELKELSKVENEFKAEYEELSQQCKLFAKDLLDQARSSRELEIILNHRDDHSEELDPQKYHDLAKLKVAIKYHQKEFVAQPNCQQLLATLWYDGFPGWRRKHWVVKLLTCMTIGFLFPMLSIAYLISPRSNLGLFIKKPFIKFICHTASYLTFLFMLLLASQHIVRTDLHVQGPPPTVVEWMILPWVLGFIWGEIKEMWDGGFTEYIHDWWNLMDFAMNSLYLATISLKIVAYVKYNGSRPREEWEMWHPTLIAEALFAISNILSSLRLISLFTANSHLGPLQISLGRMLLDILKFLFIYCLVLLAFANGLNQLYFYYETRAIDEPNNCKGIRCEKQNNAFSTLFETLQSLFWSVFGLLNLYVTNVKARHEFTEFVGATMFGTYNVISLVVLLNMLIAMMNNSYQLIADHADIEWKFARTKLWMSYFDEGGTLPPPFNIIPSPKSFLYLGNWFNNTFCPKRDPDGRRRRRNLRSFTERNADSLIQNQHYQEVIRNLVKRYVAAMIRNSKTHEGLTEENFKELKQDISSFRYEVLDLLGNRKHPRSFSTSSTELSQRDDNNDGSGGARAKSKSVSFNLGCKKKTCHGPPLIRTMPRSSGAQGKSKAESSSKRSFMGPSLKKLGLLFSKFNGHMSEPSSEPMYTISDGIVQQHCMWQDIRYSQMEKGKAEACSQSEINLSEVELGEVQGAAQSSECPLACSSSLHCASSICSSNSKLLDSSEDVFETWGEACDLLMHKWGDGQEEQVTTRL
Test: TRPC5 activity assay (FLIPR calcium fluorescence, HEK-TREx hTRPC5 cells)
Assay type: cell-based
Conditions: Table 6, HEK-TREx hTRPC5; read-out: hTRPC5-FLIPR IC50
VALUE TYPE: IC50

Recorded IC50, per entry:
CCc1ncccc1N(CC)C1CCN(c2cn[nH]c(=O)c2Cl)CC1 [LW]; 0.01 to 1000 nM
CC(c1ccc(F)cc1C(F)(F)F)N1CCN(c2cn[nH]c(=O)c2Cl)CC1=O (single isomer, unassigned) [MF]; 0.01 to 1000 nM

Proceed to the following item.
Task item: State its IC50 on TRPC5 (Homo sapiens, UniProt Q9UL62): CCc1ncccc1[C@H](C)N1CCN(c2cn[nH]c(=O)c2Cl)CC1 [LY]
Reply: 0.01 to 1000 nM
